- TEST SYSTEM: human ether-à-go-go-related gene (hERG) potassium channel (human);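 further: peak tail current of the secondary pulse compared with the same well before compound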
- TEST DESCRIPTION: primary screen, population patch clamp on CHO cells stably expressing hERG; higher = less effect of the substance
Hit rate of the full screen: of about 310,000 compounds, about 14,000 (4.5%) showed an effect of 50% or more. Effects have a minus sign here. The sample as a whole holds a higher share of strong results than the screen did.
Give measured hERG current change (%, negative = inhibition) at 10uM for each item. Keep answers brief.
The response must be a number in % with no trailing unit.

I have this compound here, CCOc1ccc(CNC(=S)NCc2ccc(OCC)cc2)cc1 , and I need its recorded hERG current change (%, negative = inhibition) at 10uM. 15.2

Entry NNC(=O)c1oc2nc(-c3cccs3)cc(-c3ccco3)c2c1N please -69.8

Entry O=C(CCCC(=O)N(CC(=O)NC1CCCC1)c1cccc(F)c1)Nc1ccccn1 please 4.77

Entry Cc1ccc(N(CC(=O)NC2CCCCC2)C(=O)CCC(=O)Nc2nccs2)cc1 please -4.93

Entry O=C(CCCC(=O)N(CC(=O)NC1CCCCC1)c1cccc(F)c1)Nc1ccccn1 please -55.3

Entry COc1ccc(N(CC(=O)NC2CCCCC2)C(=O)CCCC(=O)Nc2ccccn2)cc1 please -65.9

Entry O=C(COC(=O)Cn1cnc2ccccc21)Nc1cc(S(=O)(=O)N2CCOCC2)ccc1Cl please -0.439

Entry CCOc1ccc(N(CC(=O)NC2CCCCC2)C(=O)CCC(=O)Nc2ccccn2)cc1 please -23.3

Entry CN1C(=O)C(C)(C)c2cc(S(=O)(=O)N3CCCC(C(=O)NCc4ccc(Cl)cc4)C3)ccc21 (stereo not drawn) please -8.2

* * *

- TEST SYSTEM: human ether-à-go-go-related gene (hERG) potassium channel (human, UniProt Q12809);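 further: peak tail current of the secondary pulse compared with the same well before compound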
- Sequence (Q12809 whole entry, looked up): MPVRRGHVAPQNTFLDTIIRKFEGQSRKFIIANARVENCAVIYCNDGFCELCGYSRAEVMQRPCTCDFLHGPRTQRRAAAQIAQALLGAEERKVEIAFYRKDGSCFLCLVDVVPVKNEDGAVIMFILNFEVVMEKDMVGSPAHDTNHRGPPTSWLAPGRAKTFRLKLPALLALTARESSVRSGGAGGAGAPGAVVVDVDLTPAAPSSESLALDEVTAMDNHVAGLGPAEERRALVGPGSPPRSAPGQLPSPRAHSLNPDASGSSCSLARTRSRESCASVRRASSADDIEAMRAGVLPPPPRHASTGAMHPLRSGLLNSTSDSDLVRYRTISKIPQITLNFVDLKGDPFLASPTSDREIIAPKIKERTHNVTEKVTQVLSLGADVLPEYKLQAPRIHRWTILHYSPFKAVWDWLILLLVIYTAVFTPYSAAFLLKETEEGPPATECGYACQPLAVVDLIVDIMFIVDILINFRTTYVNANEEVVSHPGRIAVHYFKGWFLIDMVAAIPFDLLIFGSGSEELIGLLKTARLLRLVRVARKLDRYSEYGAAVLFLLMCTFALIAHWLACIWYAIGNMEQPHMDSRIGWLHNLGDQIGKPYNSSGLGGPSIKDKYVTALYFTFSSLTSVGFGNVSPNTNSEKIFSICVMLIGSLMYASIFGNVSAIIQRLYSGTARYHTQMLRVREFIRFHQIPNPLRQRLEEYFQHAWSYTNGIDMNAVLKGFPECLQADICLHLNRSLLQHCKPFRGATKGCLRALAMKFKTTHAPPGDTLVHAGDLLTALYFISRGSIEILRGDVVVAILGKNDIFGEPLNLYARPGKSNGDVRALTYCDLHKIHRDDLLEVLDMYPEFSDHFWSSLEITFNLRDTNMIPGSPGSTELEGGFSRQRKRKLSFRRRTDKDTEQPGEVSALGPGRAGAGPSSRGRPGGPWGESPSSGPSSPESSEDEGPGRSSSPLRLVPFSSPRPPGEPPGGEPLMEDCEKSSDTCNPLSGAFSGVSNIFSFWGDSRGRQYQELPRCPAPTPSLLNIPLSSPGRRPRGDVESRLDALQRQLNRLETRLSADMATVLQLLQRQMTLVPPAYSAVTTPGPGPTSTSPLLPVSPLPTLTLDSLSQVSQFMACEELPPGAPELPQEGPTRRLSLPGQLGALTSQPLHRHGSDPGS
- TEST DESCRIPTION: primary screen, population patch clamp on CHO cells stably expressing hERG; higher = less effect of the substance
Hit rate of the full screen: of about 310,000 compounds, about 14,000 (4.5%) showed an effect of 50% or more. The effect is printed as a negative number. For the sample, strong results were picked, then their nearest neighbours and some compounds at random.
Give measured hERG current change (%, negative = inhibition) at 10uM for each item. Keep answers brief.
The response must be a number in % with no trailing unit.

I have this compound here, O=C(NC(=S)Nc1nc(-c2ccc([N+](=O)[O-])cc2)cs1)c1ccco1 , and I need its recorded hERG current change (%, negative = inhibition) at 10uM. 16.5

Entry O=S(=O)(c1cccc(Br)c1)N1CCN(C(=S)NCC2CCCO2)CC1 (stereo not shown) please 11.6

Entry c1ccc(-c2cnc(-c3ccccc3)nc2)cc1 please 13.4

Entry COc1ccc(-c2nc3ccccc3c(=O)n2CCCN2CCOCC2)cc1 please 6.17

Entry COc1ccc(CNC(=O)CSc2nc3c(oc4ccccc43)c(=O)n2CC2CCCO2)cc1 (stereo not shown) please -60.6

Entry CCOC(=O)CNC(=O)c1sc(NC(=O)c2cccc(F)c2)nc1C please -0.522

Entry COc1ccccc1NC(=O)Nc1nc(CC(=O)Nc2cc(F)ccc2F)cs1 please -2.13

Entry Cc1ccc2[nH]c(-c3cccc(N)c3)cc2c1 please 18.4

Entry CCCOc1cccc(C2C(C(=O)c3ccc(C)o3)=C(O)C(=O)N2CCN2CCOCC2)c1 (stereo not shown) please 10.5

Entry O=C(/C=C(/c1ccc(Cl)cc1)n1cncn1)c1ccccc1 please -27.5

* * *

- TEST SYSTEM: human ether-à-go-go-related gene (hERG) potassium channel (human);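 further: peak tail current of the secondary pulse compared with the same well before compound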
- TEST DESCRIPTION: primary screen, population patch clamp on CHO cells stably expressing hERG; higher = less effect of the substance
Screen size: about 310,000 compounds; about 14,000 (4.5%) showed an effect of 50% or more. The effect is printed as a negative number. What follows is part of a selection rich in strong results, with near analogues and random picks from the rest.
ASSAY READOUT: hERG current change (%, negative = inhibition) at 10uM
Form field: result (number plus unit)

I have this compound here, CCCCNc1nc(-c2ccccc2)nc(-n2ccnc2)n1 , and I need its recorded hERG current change (%, negative = inhibition) at 10uM. 12.2%

Entry O=C(N/N=C/c1cc([N+](=O)[O-])ccc1O)C1CC1 please 9.47%

Entry CCOC(=O)C1CCN(C(=O)CS(=O)Cc2nc(-c3ccc(C)cc3)oc2C)CC1 (stereo not drawn) please -0.626%

Entry Cl.O=C(c1cccc(S(=O)(=O)N2CCCC2)c1)N1CCN(Cc2ccccc2)CC1 please -14.2%

Entry N#Cc1ccc(CN2CCN(C(=O)c3cc(Cl)c4c(c3)OCCO4)CC2)cc1 please -67.7%

Entry O=C(NCc1ccc(Cl)cc1)C1=Cc2cc(Cl)ccc2OC1 please -10.2%

Entry CS(=O)(=O)N1CCN(c2ccc(NC(=O)CSc3ccc(Cl)cc3)cc2)CC1 please -0.247%

Entry O=C(c1cccc(S(=O)(=O)N2CCCCC2)c1)N1CCCCC1 please 5.7%

Entry C=CCn1c(Cc2csc(N)n2)nnc1SCC(=O)OCC please -0.614%

Entry COC(=O)c1ccc(COc2ccc(/C=N/NC(N)=S)cc2)o1 please -5.9%

Entry Cc1ccc(C)c2[nH]c(=O)c(CCNC(=O)C(C)(C)C)cc12 please 8.5%

Entry COc1cccc(CNC(=O)C2=Cc3cccc(OC)c3OC2)c1 please 4.36%

Entry CC(Oc1ccc(-c2ccccc2)c(F)c1)c1ccn(S(=O)(=O)c2ccc(F)cc2)n1 (stereo not drawn) please 16%

Entry S=C(NCc1cccnc1)Nc1ccc(Oc2ccc(Cl)cc2)cc1 please -0.652%

Entry Cl.O=C(c1cccc(S(=O)(=O)N2CCCCC2)c1)N1CCN(Cc2ccccc2)CC1 please -56.6%

Entry N#Cc1ccc(CN2CCN(C(=O)c3ccc(S(=O)(=O)N4CCCCCC4)cc3)CC2)cc1 please -40.9%

Entry Cc1cc(C(=O)Nc2sc(C)c(C)c2C#N)c(C)o1 please 20.6%

Entry N#Cc1ccc(CN2CCN(C(=O)c3ccccc3)CC2)c(Cl)c1 please -33.2%

Entry CC(C)c1c(O)nc(SCc2ccccc2)[nH]c1=O please 11.5%

Entry Cc1ccc(NC(=O)CSc2nnc(-c3cccs3)n2Cc2ccco2)cc1 please -61.6%

Entry CC1(C(=O)N2CCOCC2)CCCCC1 please 11.6%

* * *

Give measured hERG current change (%, negative = inhibition) at 10uM for each item. Keep answers brief.
- TEST SYSTEM: human ether-à-go-go-related gene (hERG) potassium channel (human);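 further: peak tail current of the secondary pulse compared with the same well before compound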
- TEST DESCRIPTION: primary screen, population patch clamp on CHO cells stably expressing hERG; higher = less effect of the substance
- Method: Briefly, Chinese hamster ovary (CHO) cells stably expressing the hERG channel were dislodged from tissue culture flasks and dispensed into PPC plates. […] During the recording, background leak currents were estimated by a 100 ms step to -80 mV from an initial holding potential of -70 mV and subtracted from the subsequent current measurement. The campaign was conducted in two phases using slight differences in recording protocol. […]
The campaign covered roughly 310,000 compounds. About 14,000 (4.5%) showed an effect of 50% or more. The effect is printed as a negative number. Only a selection was taken, and strong results are over-represented in it overall.
The response must be a number in % with no trailing unit.

I have this molecule here, CCCc1cnc(N2CCN(C(=O)c3ccccc3)CC2)nc1 , and I need its recorded hERG current change (%, negative = inhibition) at 10uM. -57.1

Entry Cc1[nH]c2ccccc2c1C(=O)C(=O)NCC1CCCO1 (stereo not shown) please 6.3

Entry CCOc1ccccc1N1CCN(C(=O)CNC(=O)c2ccc(OC)c(OC)c2)CC1 please 11.9

Entry CCOc1ccc(C(=O)N2CCN(c3ncccn3)CC2)cc1 please -9.8

Entry Cc1ccc(-n2cc(CN3CCC(CO)(Cc4ccccc4)CC3)cn2)cc1 please -65.1

Entry O=C(CN1CCCCCC1)N/N=C/c1cccc(Cl)c1 please -37.5

Entry CC(=O)OC1CC2(C)C(=O)CCC2C2CCc3cc(O)ccc3C12 (stereo not shown) please 1.59

Entry CCCNC(=S)Nc1ccc(Cl)cc1C please 1.16

Entry CN1CCN(CCC(=O)N/N=C/c2cc([N+](=O)[O-])ccc2O)CC1 please 1.18

Entry CN(Cc1c(C(=O)N/N=C/c2ccccc2)nnn1-c1nonc1N)C1CCCCC1 please 8.4

Entry COc1cc(/C=C/c2nc(N)nc(-c3ccccc3O)n2)cc(OC)c1OC please -3.86

Entry CC(C)(C)NC(=O)Cn1nnc(-c2cccs2)n1 please -4.07

Entry CCOc1ccccc1N1CCN(C(=O)CNC(=O)c2ccccc2F)CC1 please -51.1

Entry O=C(CN1CCCCC1)N/N=C/c1ccc(Cl)cc1 please -66.9

Entry CCN(c1ccc(F)cc1)S(=O)(=O)c1cccc2nsnc12 please 2.4

Entry OCC1(Cc2ccccc2)CCN(Cc2cnn(-c3ccccc3F)c2)CC1 please -41.9

Entry CC(CN1CCOCC1)C(=O)c1ccccc1.Cl (stereo not shown) please 8.47

Entry Cc1ccc(-n2cc(CN3CCC(CO)(Cc4cccc(C(F)(F)F)c4)CC3)cn2)cc1 please -76

Entry CCOc1ccccc1N1CCN(C(=O)CNC(=O)c2sc3ccccc3c2Cl)CC1 please 17.4

Entry CCCCOc1ccc(C(=O)N2CCN(c3ncccn3)CC2)cc1 please -9.16

Entry O=C(CN1CCCCCC1)N/N=C/c1ccc(Cl)c(Cl)c1 please -60

Entry O=C(/C=C/c1cccc([N+](=O)[O-])c1)NCc1ccccc1 please -23.2

Values were extracted from paper PMC4336329.
